Values from paper PMC9516243

test.description: Pharmacokinetic study
Assay type: in vivo
particulars: mouse, iv; male ICR mice, 1.8 mg/kg single i.v. tail vein, plasma, UPLC-ESI-QqQ-MS, n = 5
measurement.label: MRT (h)
Write the value in h as a bare number.

>>> data_value("CC(=O)N[C@H](C(=O)N[C@@H](CO)C(=O)N[C@@H](Cc1ccccc1)C(=O)N[C@@H](C)C(=O)N[C@@H](CCC(=O)O)C(=O)N[C@@H](Cc1ccc(O)cc1)C(=O)N[C@@H](Cc1c[nH]c2ccccc12)C(=O)N[C@@H](C)C(=O)N[C@@H](CC(C)C)C(=O)N[C@@H](CC(C)C)C(=O)N[C@@H](CO)C(=O)NCCOCC(=O)N[C@@H](CC(C)C)C(=O)N[C@@H](C)C(=O)N1C[C@H](O)C[C@H]1C(=O)N[C@@H](Cc1ccc(O)cc1)C(=O)N[C@@H](CCC(C)C)C(=O)N1CCC[C@H]1C(N)=O)[C@@H](C)O")
0.7

# input compound: CC(=O)N[C@H](C(=O)N[C@@H](CO)C(=O)N[C@@H](Cc1ccccc1)C(=O)N[C@]1(C)CCCCCCC=CCCC[C@@](C)(C(N)=O)NC(=O)[C@H](CC(C)C)NC(=O)[C@H](CC(C)C)NC(=O)[C@H](C)NC(=O)[C@H](Cc2c[nH]c3ccccc23)NC(=O)[C@H](Cc2ccc(O)cc2)NC(=O)[C@H](CCC(=O)O)NC1=O)[C@@H](C)O ; wanted: its MRT
10.9
